Test: Pharmacokinetics of Compound 4 in mice (IV and PO)
Format: in vivo, BALB/c nude female mice
Settings: female, BALB/c nude, mouse, plasma, oral, 20 mg/kg, 20 mg/kg PO, 2 hr, G5; read-out: Plasma concentration G5
recorded_endpoint: concentration at 2 hr (ng/mL)
All answers are understood in ng/mL, so give the number only.

Which concentration at 2 hr is reported for this compound? NCCCOc1cc2ccccc2cc1C(=O)NCCCOc1cc2ccccc2cc1C(=O)Nc1ccc(Cl)cc1O
75

---

Assay: Pharmacokinetics of Compound 4 in mice (IV and PO)
Type: in vivo, BALB/c nude female mice
Settings: female, BALB/c nude, mouse, plasma, intravenous, 2 mg/kg, 2 mg/kg IV, 0.25 hr, G2; read-out: Plasma concentration G2
recorded_endpoint: concentration at 0.25 hr (ng/mL)
Lab book: enter the figure in ng/mL, no units written.

Please give the measured concentration at 0.25 hr for this compound: NCCCOc1cc2ccccc2cc1C(=O)NCCCOc1cc2ccccc2cc1C(=O)Nc1ccc(Cl)cc1O
1900

---

Experiment: Pharmacokinetics of Compound 4 in mice (IV and PO)
Type: in vivo, BALB/c nude female mice
Conditions: female, BALB/c nude, mouse, plasma, oral, 20 mg/kg, 20 mg/kg PO, 12 hr, G4; read-out: Plasma concentration G4
Procedure: The pharmacokinetics of Compound 4 was assessed in BALB/c nude female mice. Doses were 2 mg/kg administered intravenously (IV) and 20 mg/kg administered orally (PO). The intravenous formulation was administered in 1% N-Methyl-2-pyrrolidone (NMP) in water and was a clear solution. The per os solution was in 1.3% NMP+5% Tween-20® in a clear solution.
recorded_endpoint: concentration at 12 hr (ng/mL)
Report the value in ng/mL with no unit label.

Would you kindly share the measured concentration at 12 hr for NCCCOc1cc2ccccc2cc1C(=O)NCCCOc1cc2ccccc2cc1C(=O)Nc1ccc(Cl)cc1O [Compound 4] ?
46

---

Assay: Pharmacokinetics of Compound 4 in mice (IV and PO)
Type: in vivo, BALB/c nude female mice
Settings: female, BALB/c nude, mouse, plasma, intravenous, 2 mg/kg, 2 mg/kg IV, 1 hr, G2; read-out: Plasma concentration G2
recorded_endpoint: concentration at 1 hr (ng/mL)
Form entry: value (ng/mL) — number only.

Tell me the measured concentration at 1 hr of NCCCOc1cc2ccccc2cc1C(=O)NCCCOc1cc2ccccc2cc1C(=O)Nc1ccc(Cl)cc1O [Compound 4] , please.
378

---

Assay: Pharmacokinetics of Compound 4 in mice (IV and PO)
Type: in vivo, BALB/c nude female mice
Conditions: female, BALB/c nude, mouse, plasma, oral, 20 mg/kg, 20 mg/kg PO, 12 hr, mean; read-out: Plasma concentration Mean PO
recorded_endpoint: concentration at 12 hr (ng/mL)
Express it in ng/mL; write the number only.

Can you share its concentration at 12 hr? I mean this compound: NCCCOc1cc2ccccc2cc1C(=O)NCCCOc1cc2ccccc2cc1C(=O)Nc1ccc(Cl)cc1O [Compound 4]
47.3

---

Assay: Pharmacokinetics of Compound 4 in mice (IV and PO)
Type: in vivo, BALB/c nude female mice
Conditions: female, BALB/c nude, mouse, plasma, oral, 20 mg/kg, 20 mg/kg PO, 0.25 hr, G6; read-out: Plasma concentration G6
recorded_endpoint: concentration at 0.25 hr (ng/mL)
Enter your answer as a number in ng/mL; do not include the unit.

Which concentration at 0.25 hr reading was recorded for the molecule NCCCOc1cc2ccccc2cc1C(=O)NCCCOc1cc2ccccc2cc1C(=O)Nc1ccc(Cl)cc1O ?
101

---

Assay: Pharmacokinetics of Compound 4 in mice (IV and PO)
Type: in vivo, BALB/c nude female mice
Conditions: female, BALB/c nude, mouse, plasma, intravenous, 2 mg/kg, 2 mg/kg IV, 0.083 hr, G3; read-out: Plasma concentration G3
recorded_endpoint: concentration at 0.083 hr
Note to self: number, then unit, no commentary.

Name the recorded concentration at 0.083 hr for NCCCOc1cc2ccccc2cc1C(=O)NCCCOc1cc2ccccc2cc1C(=O)Nc1ccc(Cl)cc1O .
1540 ng/mL

---

Assay: Pharmacokinetics of Compound 4 in mice (IV and PO)
Format: in vivo, BALB/c nude female mice
Conditions: female, BALB/c nude, mouse, plasma, intravenous, 2 mg/kg, 2 mg/kg IV, 24 hr, G2; read-out: Plasma concentration G2
recorded_endpoint: concentration at 24 hr

Which value of concentration at 24 hr has been reported for NCCCOc1cc2ccccc2cc1C(=O)NCCCOc1cc2ccccc2cc1C(=O)Nc1ccc(Cl)cc1O in the records?
16.4 ng/mL

---

Assay: Pharmacokinetics of Compound 4 in mice (IV and PO)
Type: in vivo, BALB/c nude female mice
Settings: female, BALB/c nude, mouse, plasma; 2 mg/kg IV
recorded_endpoint: AUC(0-inf)

I'd like to know its AUC(0-inf). The compound in question is NCCCOc1cc2ccccc2cc1C(=O)NCCCOc1cc2ccccc2cc1C(=O)Nc1ccc(Cl)cc1O [Compound 4]
2630 ng·h/mL

---

Assay: Pharmacokinetics of Compound 4 in mice (IV and PO)
Assay type: in vivo, BALB/c nude female mice
Conditions: female, BALB/c nude, mouse, plasma, intravenous, 2 mg/kg, 2 mg/kg IV, 8 hr, mean; read-out: Plasma concentration Mean IV
recorded_endpoint: concentration at 8 hr (ng/mL)
Give just the numeric value; ng/mL need not be written.

Need concentration at 8 hr, item NCCCOc1cc2ccccc2cc1C(=O)NCCCOc1cc2ccccc2cc1C(=O)Nc1ccc(Cl)cc1O
48.5

---

Biological target: KIX-KID (Homo sapiens)
Sequence (Q92793 587-666 limits assumed): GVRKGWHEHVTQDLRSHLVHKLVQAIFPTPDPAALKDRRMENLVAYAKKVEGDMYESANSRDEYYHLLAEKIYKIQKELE
Assay: KIX-KID inhibition, split Renilla luciferase complementation (RLucC-KIX and KID-RLucN)
Settings: 4° C., 24 h
recorded_endpoint: pIC50
Scale explanation: pIC50 corresponds to minus log10 of a concentration expressed in moles per litre.

Which value of pIC50 has been reported for COc1cc2ccccc2cc1C(=O)Nc1ccccc1OC(=O)c1cc2ccccc2cc1OC [Compound 2, reference compound] in the records?
6.77

Would you kindly share the measured pIC50 for NCCCOc1cc2ccccc2cc1C(=O)Nc1ccc(Cl)cc1OC(=O)c1cc2ccccc2cc1OCCCN [Compound 3, reference compound] ?
5.10

May I ask what pIC50 has been recorded for NCCCOc1cc2ccccc2cc1C(=O)NCCCOc1cc2ccccc2cc1C(=O)Nc1ccc(Cl)cc1O [Compound 4] ?
5.60

Fill blank: measured pIC50 of the compound O=C(Nc1ccc(Cl)cc1)c1cc2ccccc2cc1O [Compound 1, reference compound] is ____.
5.54

---

Experiment: Pharmacokinetics of Compound 4 in mice (IV and PO)
Assay type: in vivo, BALB/c nude female mice
Conditions: female, BALB/c nude, mouse, plasma, oral, 20 mg/kg, 20 mg/kg PO, 8 hr, mean; read-out: Plasma concentration Mean PO
Method: The pharmacokinetics of Compound 4 was assessed in BALB/c nude female mice. Doses were 2 mg/kg administered intravenously (IV) and 20 mg/kg administered orally (PO). The intravenous formulation was administered in 1% N-Methyl-2-pyrrolidone (NMP) in water and was a clear solution. The per os solution was in 1.3% NMP+5% Tween-20® in a clear solution.
recorded_endpoint: concentration at 8 hr
Please provide the amount together with its unit, number first.

Which concentration at 8 hr reading was recorded for the compound NCCCOc1cc2ccccc2cc1C(=O)NCCCOc1cc2ccccc2cc1C(=O)Nc1ccc(Cl)cc1O ?
39.2 ng/mL

---

Assay: Pharmacokinetics of Compound 4 in mice (IV and PO)
Format: in vivo, BALB/c nude female mice
Settings: female, BALB/c nude, mouse, plasma, oral, 20 mg/kg, 20 mg/kg PO, 2 hr, G6; read-out: Plasma concentration G6
Method: The pharmacokinetics of Compound 4 was assessed in BALB/c nude female mice. Doses were 2 mg/kg administered intravenously (IV) and 20 mg/kg administered orally (PO). The intravenous formulation was administered in 1% N-Methyl-2-pyrrolidone (NMP) in water and was a clear solution. The per os solution was in 1.3% NMP+5% Tween-20® in a clear solution.
recorded_endpoint: concentration at 2 hr (ng/mL)
Numeric only. Scale: ng/mL

Field request: concentration at 2 hr | item: NCCCOc1cc2ccccc2cc1C(=O)NCCCOc1cc2ccccc2cc1C(=O)Nc1ccc(Cl)cc1O [Compound 4]
269

---

Test: Pharmacokinetics of Compound 4 in mice (IV and PO)
Type: in vivo, BALB/c nude female mice
Conditions: female, BALB/c nude, mouse, plasma, intravenous, 2 mg/kg, 2 mg/kg IV, 1 hr, G1; read-out: Plasma concentration G1
Protocol: The pharmacokinetics of Compound 4 was assessed in BALB/c nude female mice. Doses were 2 mg/kg administered intravenously (IV) and 20 mg/kg administered orally (PO). The intravenous formulation was administered in 1% N-Methyl-2-pyrrolidone (NMP) in water and was a clear solution. The per os solution was in 1.3% NMP+5% Tween-20® in a clear solution.
recorded_endpoint: concentration at 1 hr (ng/mL)
Use ng/mL as the unit, but write only the number.

Give the measured concentration at 1 hr of NCCCOc1cc2ccccc2cc1C(=O)NCCCOc1cc2ccccc2cc1C(=O)Nc1ccc(Cl)cc1O [Compound 4] .
528
